The origin of these recorded values is the supplement of paper PMC10567573.

B1: CDKL4 (parent)
chain: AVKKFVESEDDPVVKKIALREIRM

Variants of: B1
protocol: protein stability index of a GFP-peptide fusion (GPS, HEK-293T) (PSI 1-6); higher = more stable;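 note: lentivirally expressed fusions sorted by FACS into six bins by GFP to DsRed ratio, PSI derived from sequencing read proportions per bin multiplied by bin number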
conditionDetails: c terminus: a fixed tail appended
# protein stability index annotations

{"variant": "E7D", "protein stability index": 2.71}
{"variant": "V14W", "protein stability index": 2.65}
{"variant": "A1H", "protein stability index": 2.59}
{"variant": "A1N", "protein stability index": 3.38}
{"variant": "F5N", "protein stability index": 3.14}
{"variant": "L19T", "protein stability index": 4.34}
{"variant": "K16V", "protein stability index": 2.27}
{"variant": "V2E", "protein stability index": 4.01}
{"variant": "E7K", "protein stability index": 2.61}
{"variant": "A18T", "protein stability index": 3.45}
{"variant": "K16W", "protein stability index": 2.05}
{"variant": "V2N", "protein stability index": 3.63}
{"variant": "V14Y", "protein stability index": 2.54}
{"variant": "E9M", "protein stability index": 1.76}
{"variant": "E9K", "protein stability index": 2.69}
{"variant": "R23P", "protein stability index": 3.67}
{"variant": "V6M", "protein stability index": 3.23}
{"variant": "S8W", "protein stability index": 2.24}
{"variant": "R23N", "protein stability index": 4.2}
{"variant": "V6Y", "protein stability index": 2.57}
{"variant": "E21R", "protein stability index": 3.02}
{"variant": "I22M", "protein stability index": 3.29}
